Tested target: MMP-13 (Homo sapiens, UniProt P45452)
Test name: In vivo MMP inhibition test procedure (implanted dialysis tubing containing enzyme)
Set-up: species or system rat or mouse
Measurement context: dose 25 mg/kg, p.o. vs MMP-13
Result type: in-vivo MMP % inhibition

>  <Compound>
Cc1nsc2ncc(C(=O)NO)c(N(C)S(=O)(=O)c3ccc(Oc4ccncc4)cc3)c12 [Example 92]

>  <Tested target>
MMP-13 (Homo sapiens, UniProt P45452)

>  <Result type>
in-vivo MMP % inhibition

>  <Data value>
30% (25)

$$$$
>  <Compound>
Cc1noc2ncc(C(=O)NO)c(N(C)S(=O)(=O)c3ccc(Oc4ccncc4)cc3)c12 [Example 94]

>  <Tested target>
MMP-13 (Homo sapiens, UniProt P45452)

>  <Result type>
in-vivo MMP % inhibition

>  <Data value>
12% (25)

$$$$
>  <Compound>
COc1ccc(S(=O)(=O)N(Cc2ccccc2)c2c(C(=O)NO)cnc3c2c(C)nn3-c2ccccc2)cc1 [Example 66]

>  <Tested target>
MMP-13 (Homo sapiens, UniProt P45452)

>  <Result type>
in-vivo MMP % inhibition

>  <Data value>
5% (25)

$$$$

Cited source: patent US6534491B2
